Tested on: BV-2 microglial cells
Experimental details: LPS-induced NO production in BV-2 microglial cells (Griess, nitrite)
Type: cell-based, murine
Measurement conditions: Mus musculus; BV-2 microglial cells, LPS 100 ng/ml, 10 μM compound; LPS-increased NO production = 100%
inhibition at 10 µM values by entry
Your answer should be a plain number; it is taken to be in %.

{"Compound": "CCC(OC(=O)N(Cc1ccccc1)C(=O)Nc1ccc(OC)c(OC)c1)c1cc(-c2ccc(OC(C)(C)C(=O)O)cc2)no1 (stereo not drawn)", "Quantity name": "inhibition at 10 µM", "Observed value": 60.7}
{"Compound": "CCC(OC(=O)N(Cc1ccccc1)C(=O)Nc1ccccc1OC)c1cc(-c2ccc(OC(C)(C)C(=O)O)cc2)no1 (stereo not drawn)", "Quantity name": "inhibition at 10 µM", "Observed value": 20.9}

Requested read-out: inhibition at 10 µM. Entry: CCC(OC(=O)N(Cc1ccccc1)C(=O)Nc1cc(OC)cc(OC)c1)c1cc(-c2ccc(OC(C)(C)C(=O)O)cc2)no1 (stereo not drawn)
56.7

----------
Experimental details: Brain distribution and half-life after intraperitoneal administration
Assay type: in vivo
Measurement conditions: brain, ip, 2 mg/kg, previous study by the inventors
Quantity name: half-life (h)
Your answer should be a plain number; it is taken to be in h.

Requested read-out: half-life. Entry: CCC(OC(=O)N(Cc1ccccc1)C(=O)Nc1ccccc1)c1cc(-c2ccc(OC(C)(C)C(=O)O)cc2)no1 (stereo not shown)
5.23

----------
inhibition at 10 µM values by entry
System: BV-2 microglial cells
Experimental details: LPS-induced NO production in BV-2 microglial cells (Griess, nitrite)
Type: cell-based, murine
Measurement conditions: Mus musculus; BV-2 microglial cells, LPS 100 ng/ml, 10 μM compound; LPS-increased NO production = 100%
Your answer should be a plain number; it is taken to be in %.

{"Compound": "CCC(OC(=O)N(Cc1ccccc1)C(=O)Nc1cccc(OC)c1)c1cc(-c2ccc(OC(C)(C)C(=O)O)cc2)no1 (stereo not drawn) [Compound 3-methoxy]", "Unit annotation": "%", "inhibition at 10 µM": 25.6}
{"Compound": "CCC(OC(=O)N(Cc1ccccc1)C(=O)Nc1ccccc1)c1cc(-c2ccc(OC(C)(C)C(=O)O)cc2)no1 (stereo not drawn) [Compound 1]", "Unit annotation": "%", "inhibition at 10 µM": 73.4}

Continue with the compound presented below.
Requested read-out: inhibition at 10 µM. Entry: CCC(OC(=O)N(Cc1ccccc1)C(=O)Nc1ccc2c(c1)OCO2)c1cc(-c2ccc(OC(C)(C)C(=O)O)cc2)no1 (stereo not drawn) [3,4-methylenedioxy]
74.6

----------
inhibition at 10 µM values by entry
Test system: BV-2 microglial cells
Experimental details: LPS-induced NO production in BV-2 microglial cells (Griess, nitrite)
Assay type: cell-based, murine
Measurement conditions: Mus musculus; BV-2 microglial cells, LPS 100 ng/ml, 10 μM compound; LPS-increased NO production = 100%
Your answer should be a plain number; it is taken to be in %.

Take a look at these entries with their results.
{"Molecule": "CCC(OC(=O)N(Cc1ccccc1)C(=O)Nc1ccc(Cl)cc1)c1cc(-c2ccc(OC(C)(C)C(=O)O)cc2)no1 (centres unmarked)", "inhibition at 10 µM (%)": 67.8}
{"Molecule": "CCC(OC(=O)N(Cc1ccccc1)C(=O)Nc1ccc(C)cc1)c1cc(-c2ccc(OC(C)(C)C(=O)O)cc2)no1 (centres unmarked)", "inhibition at 10 µM (%)": 46.7}
{"Molecule": "CCC(OC(=O)N(Cc1ccccc1)C(=O)Nc1ccc(C(F)(F)F)cc1)c1cc(-c2ccc(OC(C)(C)C(=O)O)cc2)no1 (centres unmarked)", "inhibition at 10 µM (%)": 52.7}
{"Molecule": "CCCCc1ccc(NC(=O)N(Cc2ccccc2)C(=O)OC(CC)c2cc(-c3ccc(OC(C)(C)C(=O)O)cc3)no2)cc1 (centres unmarked)", "inhibition at 10 µM (%)": 58.3}

Continue with the molecule presented below.
Requested read-out: inhibition at 10 µM. Entry: CCC(OC(=O)N(Cc1ccccc1)C(=O)Nc1ccc(OC)cc1)c1cc(-c2ccc(OC(C)(C)C(=O)O)cc2)no1 (centres unmarked)
46.7
